Target: Phosphatidylinositol 4,5-bisphosphate 3-kinase catalytic subunit gamma isoform (Homo sapiens)
Sequence (P48736 whole entry, canonical isoform): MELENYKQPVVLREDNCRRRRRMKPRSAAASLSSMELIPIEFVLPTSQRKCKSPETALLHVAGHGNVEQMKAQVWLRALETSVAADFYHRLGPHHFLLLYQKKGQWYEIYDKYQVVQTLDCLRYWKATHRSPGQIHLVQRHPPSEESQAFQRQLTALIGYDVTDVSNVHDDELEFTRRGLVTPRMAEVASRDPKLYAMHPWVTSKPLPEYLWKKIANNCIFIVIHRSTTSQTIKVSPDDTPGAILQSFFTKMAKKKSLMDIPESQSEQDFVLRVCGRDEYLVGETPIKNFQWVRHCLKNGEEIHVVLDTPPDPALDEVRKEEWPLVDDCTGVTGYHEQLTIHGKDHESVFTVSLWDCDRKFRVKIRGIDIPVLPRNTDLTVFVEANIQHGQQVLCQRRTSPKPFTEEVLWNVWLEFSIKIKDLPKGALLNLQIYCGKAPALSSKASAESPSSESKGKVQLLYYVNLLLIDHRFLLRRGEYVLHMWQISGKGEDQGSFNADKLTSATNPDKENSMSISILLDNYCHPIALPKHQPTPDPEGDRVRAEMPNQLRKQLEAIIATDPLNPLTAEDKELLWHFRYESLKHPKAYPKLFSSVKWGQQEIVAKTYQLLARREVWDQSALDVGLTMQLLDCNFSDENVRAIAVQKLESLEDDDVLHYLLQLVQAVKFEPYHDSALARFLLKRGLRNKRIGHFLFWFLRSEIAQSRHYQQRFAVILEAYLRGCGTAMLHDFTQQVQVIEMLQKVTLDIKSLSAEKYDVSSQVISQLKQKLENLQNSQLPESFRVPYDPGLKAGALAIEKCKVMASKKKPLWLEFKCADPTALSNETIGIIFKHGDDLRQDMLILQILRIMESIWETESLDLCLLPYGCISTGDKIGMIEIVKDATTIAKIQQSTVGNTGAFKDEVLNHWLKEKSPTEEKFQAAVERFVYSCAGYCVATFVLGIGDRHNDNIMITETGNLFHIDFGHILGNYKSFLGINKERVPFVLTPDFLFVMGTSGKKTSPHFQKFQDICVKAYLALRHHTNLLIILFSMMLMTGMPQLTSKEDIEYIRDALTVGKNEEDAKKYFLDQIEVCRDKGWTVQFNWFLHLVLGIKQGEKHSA
Assay: Inhibition of PI3Kgamma (unknown origin) expressed in SF21 cells using phosphatidylinositol as substrate after 60 mins by Kinase-Glo assay
# IC50 listing for each entry below

Request: Fill in: IC50 of "COc1ccc2nc(C(C)C)n(-c3nc(N4CCOCC4)nc(N4CCOCC4)n3)c2c1" is ___
Response: > 10 µM

====

log10 IC50 for assorted compounds
Target: Phosphatidylinositol 4,5-bisphosphate 3-kinase catalytic subunit delta isoform (Homo sapiens)
Sequence (O00329 whole entry): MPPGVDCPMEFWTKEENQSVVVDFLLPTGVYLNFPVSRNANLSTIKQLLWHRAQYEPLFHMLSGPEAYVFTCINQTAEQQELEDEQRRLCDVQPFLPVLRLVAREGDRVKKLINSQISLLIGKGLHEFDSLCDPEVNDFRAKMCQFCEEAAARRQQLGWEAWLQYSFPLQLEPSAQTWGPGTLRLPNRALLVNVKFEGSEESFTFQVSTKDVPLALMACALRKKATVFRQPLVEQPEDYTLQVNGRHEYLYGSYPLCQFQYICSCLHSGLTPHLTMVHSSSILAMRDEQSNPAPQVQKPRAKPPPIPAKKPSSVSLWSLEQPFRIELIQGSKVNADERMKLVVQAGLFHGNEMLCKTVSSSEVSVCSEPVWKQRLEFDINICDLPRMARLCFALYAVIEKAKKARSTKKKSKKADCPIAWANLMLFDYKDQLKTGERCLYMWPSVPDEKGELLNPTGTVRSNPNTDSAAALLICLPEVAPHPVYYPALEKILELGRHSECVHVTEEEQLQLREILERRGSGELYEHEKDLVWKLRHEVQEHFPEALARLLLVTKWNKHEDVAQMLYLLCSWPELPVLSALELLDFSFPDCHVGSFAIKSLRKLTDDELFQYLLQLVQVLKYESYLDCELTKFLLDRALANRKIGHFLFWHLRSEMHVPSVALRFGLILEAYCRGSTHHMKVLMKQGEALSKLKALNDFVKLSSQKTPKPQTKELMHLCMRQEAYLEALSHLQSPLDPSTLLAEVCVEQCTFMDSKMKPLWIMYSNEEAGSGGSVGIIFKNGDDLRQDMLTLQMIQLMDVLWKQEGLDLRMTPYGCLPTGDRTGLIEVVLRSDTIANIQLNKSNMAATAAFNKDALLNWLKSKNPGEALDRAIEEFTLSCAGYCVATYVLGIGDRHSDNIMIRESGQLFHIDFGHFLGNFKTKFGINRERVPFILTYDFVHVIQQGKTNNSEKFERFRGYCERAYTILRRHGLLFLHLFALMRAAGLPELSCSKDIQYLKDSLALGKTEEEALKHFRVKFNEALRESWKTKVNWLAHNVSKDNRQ
Assay: Inhibition of PI3Kdelta (unknown origin) expressed in SF21 cells using phosphatidylinositol as substrate after 60 mins by Kinase-Glo assay
Use the decimal logarithm of IC50 (nM).

Example results:
chemical-structure	log10 IC50
COc1ccc2nc(C(F)F)n(-c3nc(N4CCOCC4)nc(N4CCOCC4)n3)c2c1	2.04
COc1ccc2nc(C)n(-c3nc(N4CCOCC4)nc(N4CCOCC4)n3)c2c1	2.66
CC(C)c1nc2ccccc2n1-c1nc(N2CCOCC2)nc(N2CCOCC2)n1	2.11
Cc1nc2ccccc2n1-c1nc(N2CCOCC2)nc(N2CCOCC2)n1	2.27
COc1ccc2c(c1)nc(C(C)C)n2-c1nc(N2CCOCC2)nc(N2CCOCC2)n1	3.05

Request: Item under review: "COc1ccc2nc(C(C)C)n(-c3nc(N4CCOCC4)nc(N4CCOCC4)n3)c2c1" . Reported log10 IC50?
Response: 2.63

Request: Quick one: log10 IC50 for "COc1ccc2c(c1)nc(C)n2-c1nc(N2CCOCC2)nc(N2CCOCC2)n1" ?
Response: 3.44
